- Experiment notes: folding stability dG unfold from chymotrypsin proteolysis; higher = more stable
For each entry below, report its folding stability dG unfold value.
Answers are plain numbers, in kcal/mol.

Consider the worked cases shown below.
>>> print(df.to_string())
                             chain_sequence  value_unit  experimental_value
0  SAGGSAKTKVIEIEIDLSPEEIEELAKKLKEEGKVEEVKVEYDEKTGKVKVTVVVRDKNGEWKKLSSAGGSA [r15_177_TrROS_Hall]    kcal/mol             -0.0755
1  SAGGMGSEKLPLTLTLPGDRKLEVTVYRVGDKLYVEIKLTHGSKPLGTLTVEADSLDEVLDAAKEAASAGGS [r16_55_TrMRF]    kcal/mol                3.58
2  SAGGSAGGSAGSMTITITETKKLPNGKTVVTTTKVEVRVFPNGGAIERKTLEVVTEELLGSAGGSAGGSAGG [r17_129_JUSTAS]    kcal/mol                1.79

Proceed to the following item.
*Q* For SAGGSAGGSAGGNVPIPFLPEGFDVEVKKIEVPTPGKVKLVLVPKNSDEEFELEFSPEELSAGGSAGGSAGG [r7_342_TrMRF] , what is its reported folding stability dG unfold?
*A* -0.633
